src = patent US20220281997A1

# test system: camel-derived heavy-chain antibodies on camel PBMC cells
# assay protocol: flow cytometry, PE-labeled antibody on PBMC of a non-immunized camel
measurement kind: proportion of PBMC cells specific for heavy-chain antibodies (%)
Numbers only, in %.

GET /values?readout=proportion of PBMC cells specific for heavy-chain antibodies&item= R166.H9 (antibody, V domains shown) VH: QSLEESGGRLVTPGTPLTLTCTASGFSLNNYNMIWVRQAPGEGLEWIGMIGDGDDAAWYASWAKGRFTISKTSTTVDLEVTSLTTEDTAIYFCARYLSFTRLDLWGQGTLVTVSS VL: AVLTQTPSPVSAAVGGTVTINCQSSQSVYHNNWLAWYQQKPGQPPKLLIYGAATLASGVPSRFKGSGSGTQFTFTITDVQCDDVGTYYCAGVYNDDSENAFGGGTEVVVKG
24.2
